The origin of these recorded values is patent EP4230621A1.

Nachauflaufwirkung gegen TRZAS in % overview
system: Triticum aestivum; assay: Post-emergence action on crop plants, TRZAS (greenhouse pot test); format: in vivo; conditions: 20 g/ha, crop plant
Give a bare numeral; the unit % is implied.

Some solved entries appear below for comparison.
Return reported Nachauflaufwirkung gegen TRZAS in %; argument: Cn1c(C(F)(F)F)cc(=O)n(-c2cc(C(=O)OC(C)(C)C(=O)OCc3ccccn3)c(Cl)cc2F)c1=O 20

Try this compound too: Cn1c(C(F)(F)F)cc(=O)n(-c2cc(C(=O)OC(C)(C)C(=O)OCC#N)c(Cl)cc2F)c1=O 10

Try this compound too: CCOCCOC(=O)C(C)(C)OC(=O)c1cc(-n2c(=O)cc(C(F)(F)F)n(C)c2=O)c(F)cc1Cl 20

Consider now this further compound.
Return reported Nachauflaufwirkung gegen TRZAS in %; argument: CC(C)=NOC(=O)C(C)(C)OC(=O)c1cc(-n2c(=O)cc(C(F)(F)F)n(C)c2=O)c(F)cc1Cl 10
